Here, each record is paired with measured Bliss excess data.
tested on: HT-1197 (Bladder Carcinoma); assay: Bliss excess, mean over the matrix (fraction); higher = more synergy
// return a plain number; no unit text

CC(=O)c1c(C)c2cnc(Nc3ccc(N4CCNCC4)cn3)nc2n(C2CCCC2)c1=O [Palbociclib] + Cc1c2c(nn1C)CSCc1cc(n(C)n1)CSc1cc(c3ccccc3c1)OCCCc1c(C(=O)O)n(C)c3c-2c(Cl)ccc13 [AZD5991] (first compound max 10 µM, 7x7, partner max 1 µM)
-0.0289

# query: Bliss excess | item Cn1cnc2c(F)c(Nc3ccc(Br)cc3Cl)c(C(=O)NOCCO)cc21 [Selumetinib] + CCN(CCO)CCCOc1ccc2c(Nc3cc(CC(=O)Nc4cccc(F)c4)[nH]n3)ncnc2c1 [AZD2811] (first compound max 10 µM, 7x7, partner max 1 µM) | system: HT-1197 (Bladder Carcinoma)
-0.0073

---

The following molecules are shown together with reported Bliss excess values.
test system: NCI-H2023 (Non-Small Cell Lung Carcinoma); assay: Bliss excess, mean over the matrix (fraction); higher = more synergy
Answer using only a numeral; do not append any unit.

These solved cases illustrate the format of a correct answer.
Cc1c2c(nn1C)CSCc1cc(n(C)n1)CSc1cc(c3ccccc3c1)OCCCc1c(C(=O)O)n(C)c3c-2c(Cl)ccc13 [AZD5991] + Cc1cc2ncnn2cc1Nc1ncc2c(n1)n(C1CCOCC1)c(=O)n2C [AZD7648] (first compound max 1 µM, 7x7, partner max 10 µM)
-0.0423
CN(CCO)CC[C@H](CSc1ccccc1)Nc1ccc(S(=O)(=O)NC(=O)c2ccc(N3CCC([C@@H](O)c4ccccc4-c4ccc(Cl)cc4)CC3)cc2)cc1S(=O)(=O)C(F)(F)F [AZD4320] + CC(=O)O[C@H]1C(=O)[C@@]2(C)[C@H]([C@H](OC(=O)c3ccccc3)[C@]3(O)C[C@H](OC(=O)[C@H](O)[C@@H](NC(=O)c4ccccc4)c4ccccc4)C(C)=C1C3(C)C)[C@]1(OC(C)=O)CO[C@@H]1C[C@@H]2O [Paclitaxel] (first compound max 1 µM, 7x7, partner max 3 µM)
0.0458
CS(=O)(=O)CCNCc1ccc(-c2ccc3ncnc(Nc4ccc(OCc5cccc(F)c5)c(Cl)c4)c3c2)o1 [Lapatinib] + C[C@@H](Oc1cc(-c2cnn(C3CCNCC3)c2)cnc1N)c1c(Cl)ccc(F)c1Cl [Crizotinib] (first compound max 10 µM, 7x7, partner max 10 µM)
-0.026
Cc1c2c(nn1C)CSCc1cc(n(C)n1)CSc1cc(c3ccccc3c1)OCCCc1c(C(=O)O)n(C)c3c-2c(Cl)ccc13 [AZD5991] + CN(C)CCCOc1ccc(-c2ccc3ncc4c(c3c2)n(C2CCOCC2)c(=O)n4C)cn1 [AZD0156] (first compound max 1 µM, 7x7, partner max 1 µM)
-0.0069
Cc1nc(Nc2ncc(C(=O)Nc3c(C)cccc3Cl)s2)cc(N2CCN(CCO)CC2)n1 [Dasatinib] + CC(=O)Nc1cccc(-n2c(=O)n(C3CC3)c(=O)c3c(Nc4ccc(I)cc4F)n(C)c(=O)c(C)c32)c1 [Trametinib] (first compound max 2 µM, 7x7, partner max 1 µM)
-0.0228

--- query ---
Quick one: Bliss excess for CN(CCO)CC[C@H](CSc1ccccc1)Nc1ccc(S(=O)(=O)NC(=O)c2ccc(N3CCC([C@@H](O)c4ccccc4-c4ccc(Cl)cc4)CC3)cc2)cc1S(=O)(=O)C(F)(F)F [AZD4320] + C[C@@H]1COCCN1C2=NC(=NC(=C2)C3(CC3)[S@](=N)(=O)C)C4=C5C=CNC5=NC=C4 [AZD6738] (first compound max 1 µM, 7x7, partner max 10 µM) ?
-0.0255

---

tested on: CAL-85-1 (Breast Carcinoma); test: combination Emax (second highest fraction inhibited in the dose matrix, 72 h); higher = more inhibition; extreme values may be limits of the assay
# combination Emax values compiled below

Below, each entry is followed by its recorded combination Emax result.
C=CCn1c(=O)c2cnc(Nc3ccc(N4CCN(C)CC4)cc3)nc2n1-c1cccc(C(C)(C)O)n1 [AZD1775] + O=C(c1cc(Cc2n[nH]c(=O)c3ccccc23)ccc1F)N1CCN(C(=O)C2CC2)CC1 [Olaparib] (first compound max 1 µM, partner max 10 µM)
0.394
NC1(C(=O)N[C@@H](CCO)c2ccc(Cl)cc2)CCN(c2ncnc3[nH]ccc23)CC1 [Capivasertib] + C[C@@H]1COCCN1C2=NC(=NC(=C2)C3(CC3)[S@](=N)(=O)C)C4=C5C=CNC5=NC=C4 [AZD6738] (first compound max 10 µM, 7x7, partner max 10 µM)
0.47
N#Cc1cnc(Nc2cc(NC[C@H]3CNCCO3)c(C(F)(F)F)cn2)cn1 [SRA737] + C=CCn1c(=O)c2cnc(Nc3ccc(N4CCN(C)CC4)cc3)nc2n1-c1cccc(C(C)(C)O)n1 [AZD1775] (first compound max 10 µM, partner max 1 µM)
0.476
NC1(C(=O)N[C@@H](CCO)c2ccc(Cl)cc2)CCN(c2ncnc3[nH]ccc23)CC1 [Capivasertib] + CCN(CCO)CCCOc1ccc2c(Nc3cc(CC(=O)Nc4cccc(F)c4)[nH]n3)ncnc2c1 [AZD2811] (first compound max 10 µM, 7x7, partner max 1 µM)
0.203
CC1(C)CCC(CN2CCN(c3ccc(C(=O)NS(=O)(=O)c4ccc(NCC5CCOCC5)c([N+](=O)[O-])c4)c(Oc4cnc5[nH]ccc5c4)c3)CC2)=C(c2ccc(Cl)cc2)C1 [Venetoclax] + C1CN(CCC1(C(=O)N[C@@H](CCO)C2=CC=C(C=C2)Cl)N)C3=NC=NC4=C3C=CN4 [Capivasertib] (first compound max 1 µM, 7x7, partner max 3 µM)
0.161
Cc1c2c(nn1C)CSCc1cc(n(C)n1)CSc1cc(c3ccccc3c1)OCCCc1c(C(=O)O)n(C)c3c-2c(Cl)ccc13 [AZD5991] + C[C@@H]1COCCN1C2=NC(=NC(=C2)C3(CC3)[S@](=N)(=O)C)C4=C5C=CNC5=NC=C4 [AZD6738] (first compound max 1 µM, 7x7, partner max 10 µM)
0.584

Bench note: what combination Emax did COc1cccc(OCCCN)c1-c1cc(Nc2cnc(C#N)cn2)n[nH]1 [Prexasertib] + CN(C)CCCOc1ccc(-c2ccc3ncc4c(c3c2)n(C2CCOCC2)c(=O)n4C)cn1 [AZD0156] (first compound max 1 µM, 7x7, partner max 1 µM) show?
0.315

# lookup: combination Emax of CC(=O)c1c(C)c2cnc(Nc3ccc(N4CCNCC4)cn3)nc2n(C2CCCC2)c1=O [Palbociclib] + Cc1c2c(nn1C)CSCc1cc(n(C)n1)CSc1cc(c3ccccc3c1)OCCCc1c(C(=O)O)n(C)c3c-2c(Cl)ccc13 [AZD5991] (first compound max 10 µM, 7x7, partner max 1 µM)
0.234

I am curious: what combination Emax value has been reported for COc1cccc(OCCCN)c1-c1cc(Nc2cnc(C#N)cn2)n[nH]1 [Prexasertib] + CCc1c2c(nc3ccc(O)cc13)-c1cc3c(c(=O)n1C2)COC(=O)[C@]3(O)CC [SN-38] (first compound max 1 µM, 7x7, partner max 0.3 µM) ?
0.85

What does the record list as combination Emax for O=C(c1cc(Cc2n[nH]c(=O)c3ccccc23)ccc1F)N1CCN(C(=O)C2CC2)CC1 [Olaparib] + CC1(C)CCC(CN2CCN(c3ccc(C(=O)NS(=O)(=O)c4ccc(NCC5CCOCC5)c([N+](=O)[O-])c4)c(Oc4cnc5[nH]ccc5c4)c3)CC2)=C(c2ccc(Cl)cc2)C1 [Venetoclax] (first compound max 10 µM, 7x7, partner max 1 µM) ?
0.239

---

system: JURL-MK1 (Chronic Myelogenous Leukemia); assay: combination Emax (second highest fraction inhibited in the dose matrix, 72 h); higher = more inhibition; extreme values may be limits of the assay
The following molecules are shown together with reported combination Emax values.
Lab note: record the figure alone, no unit after it.

CCN(CCO)CCCOc1ccc2c(Nc3cc(CC(=O)Nc4cccc(F)c4)[nH]n3)ncnc2c1 [AZD2811] + O=C(c1cc(Cc2n[nH]c(=O)c3ccccc23)ccc1F)N1CCN(C(=O)C2CC2)CC1 [Olaparib] (first compound max 1 µM, 7x7, partner max 10 µM)
0.688

Reported combination Emax, molecule CC(=O)c1c(C)c2cnc(Nc3ccc(N4CCNCC4)cn3)nc2n(C2CCCC2)c1=O [Palbociclib] + CC1(C)CCC(CN2CCN(c3ccc(C(=O)NS(=O)(=O)c4ccc(NCC5CCOCC5)c([N+](=O)[O-])c4)c(Oc4cnc5[nH]ccc5c4)c3)CC2)=C(c2ccc(Cl)cc2)C1 [Venetoclax] (first compound max 10 µM, 7x7, partner max 1 µM) : ____
0.661

---

system: NTERA-2-cl-D1 (Other Solid Carcinomas); assay: Bliss excess, mean over the matrix (fraction); higher = more synergy
MEASURED_ATTRIBUTE: Bliss excess
# output: bare number, no unit

Below are worked cases with known answers.
Cc1nc(-c2cn3c(n2)-c2ccc(-c4cnn(C(C)(C)C(N)=O)c4)cc2OCC3)n(C(C)C)n1 [Taselisib] + O=C(Nc1ccc2[nH]nc(-c3ccncc3)c2c1)[C@@H]1CCN(CC(=O)N2CCN(c3ccc(-c4ncccn4)cc3)CC2)C1 [SCH772984] (first compound max 10 µM, 7x7, partner max 5 µM)
-0.0322
C[C@@H](c1ccc2nccn2c1)n1nnc2ncc(-c3cnn(C)c3)nc21 [Savolitinib] + Cc1c2c(nn1C)CSCc1cc(n(C)n1)CSc1cc(c3ccccc3c1)OCCCc1c(C(=O)O)n(C)c3c-2c(Cl)ccc13 [AZD5991] (first compound max 1 µM, 7x7, partner max 1 µM)
-0.015
NC1(C(=O)N[C@@H](CCO)c2ccc(Cl)cc2)CCN(c2ncnc3[nH]ccc23)CC1 [Capivasertib] + Cn1cnc2c(F)c(Nc3ccc(Br)cc3Cl)c(C(=O)NOCCO)cc21 [Selumetinib] (first compound max 10 µM, 7x7, partner max 10 µM)
0.0064

Now let's try a different one.
Lab note: need Bliss excess for CC1(C)CCC(CN2CCN(c3ccc(C(=O)NS(=O)(=O)c4ccc(NCC5CCOCC5)c([N+](=O)[O-])c4)c(Oc4cnc5[nH]ccc5c4)c3)CC2)=C(c2ccc(Cl)cc2)C1 [Venetoclax] + C[C@@H](Nc1cc(F)cc(F)c1)c1cc(C(=O)N(C)C)cc2c(=O)cc(N3CCOCC3)oc12 [AZD8186] (first compound max 1 µM, 7x7, partner max 3 µM) on NTERA-2-cl-D1 (Other Solid Carcinomas), anyone have it?
-0.0199
